Listed here: items and their measured ECL signal.
study system: T1, rHuman Notch-1/Fc Chimera, CF (R&D Systems Cat#3647-TK) (human, UniProt P46531 19-526)
T1 construct: Bought protein; Fc part of the bought chimera not given
assay name: ECL multispot (MSD) assay; antigen spotted on plate, Fab in solution;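 note: purified Fab incubated 1 hour at 20 °C in 1% BSA TBST on antigen-coated wells, detected with TAG antibody, ECL read on Sector Imager 2400, compared to each well's blank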

Consider the worked cases shown below.
[[record]]
binder = "Fab VH1-46_IGHD6-6*01_IGHJ1*01 S102A/S103P/S104F (APF) & L6_IGKJ1*01 S30T (Fab, V domains shown, Tested as Fab made in E. coli; The heavy chain vector (Plasmid A) adds CH1 with His and Flag tags, the kappa vector (Plasmid C) adds CL kappa; also called APF / S30T) VH: QVQLVQSGAEVKKPGASVKVSCKASGYTFTSYYMHWVRQAPGQGLEWMGIINPSGGSTSYAQKFQGRVTMTRDTSTSTVYMELSSLRSEDTAVYYCAREEYAPFSAEYFQHWGQGTLVTVSS VL: EIVLTQSPATLSLSPGERATLSCRASQSVTSYLAWYQQKPGQAPRLLIYDASNRATGIPARFSGSGSGTDFTLTISSLEPEDFAVYYCQQRSNWPPWTFGQGTKVEIKR"
measurement = "127 ECL signal"

[[record]]
binder = "Fab VH1-46_IGHD6-6*01_IGHJ1*01 S102A/S103P/S104F (APF) & L6_IGKJ1*01 S30L (Fab, V domains shown, Tested as Fab made in E. coli; The heavy chain vector (Plasmid A) adds CH1 with His and Flag tags, the kappa vector (Plasmid C) adds CL kappa; also called APF / S30L) VH: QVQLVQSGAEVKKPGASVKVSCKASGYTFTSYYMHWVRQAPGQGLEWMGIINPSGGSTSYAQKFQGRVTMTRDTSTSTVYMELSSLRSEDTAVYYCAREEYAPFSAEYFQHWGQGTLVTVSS VL: EIVLTQSPATLSLSPGERATLSCRASQSVLSYLAWYQQKPGQAPRLLIYDASNRATGIPARFSGSGSGTDFTLTISSLEPEDFAVYYCQQRSNWPPWTFGQGTKVEIKR"
measurement = "296 ECL signal"

[[record]]
binder = "Fab VH1-46_IGHD6-6*01_IGHJ1*01 S102A/S103P/S104F (APF) & L6_IGKJ1*01 S30R (Fab, V domains shown, Tested as Fab made in E. coli; The heavy chain vector (Plasmid A) adds CH1 with His and Flag tags, the kappa vector (Plasmid C) adds CL kappa; also called APF / S30R) VH: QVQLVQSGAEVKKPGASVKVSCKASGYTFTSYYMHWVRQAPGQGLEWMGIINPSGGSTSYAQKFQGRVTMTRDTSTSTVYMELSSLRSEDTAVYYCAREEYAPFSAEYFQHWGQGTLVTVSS VL: EIVLTQSPATLSLSPGERATLSCRASQSVRSYLAWYQQKPGQAPRLLIYDASNRATGIPARFSGSGSGTDFTLTISSLEPEDFAVYYCQQRSNWPPWTFGQGTKVEIKR"
measurement = "155 ECL signal"


Okay, now this binder:
# get_value(readout='ECL signal', item= Fab VH1-46_IGHD6-6*01_IGHJ1*01 S102A/S103P/S104F (APF) & L6_IGKJ1*01 S30W (Fab, V domains shown, Tested as Fab made in E. coli; The heavy chain vector (Plasmid A) adds CH1 with His and Flag tags, the kappa vector (Plasmid C) adds CL kappa; also called APF / S30W) VH: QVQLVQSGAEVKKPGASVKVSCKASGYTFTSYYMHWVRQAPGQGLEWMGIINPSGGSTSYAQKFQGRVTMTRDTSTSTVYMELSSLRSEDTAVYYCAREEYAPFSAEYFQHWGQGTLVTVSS VL: EIVLTQSPATLSLSPGERATLSCRASQSVWSYLAWYQQKPGQAPRLLIYDASNRATGIPARFSGSGSGTDFTLTISSLEPEDFAVYYCQQRSNWPPWTFGQGTKVEIKR )
105 ECL signal
